Test system: KRAS-mutant PDC multicell tumor spheroid viability;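 further: viability read after seven days of drug exposure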
Test: Anticancer human tumor 521955-158-R2-J5-PDC patient-derived pancreatic carcinoma cell line growth inhibition [KRAS2]
Conditions: second compound 0.316 µM; first compound 3.16 µM; active compounds read low
Measured Endpoint: viability, T/C (%)

# Molecule, Assayed System, Recorded Number
data = [
    ("CC1COCCN1c1cc(-c2ccnn2C)c2ccnc(-c3ccn[nH]3)c2n1 (stereo unspecified) + CNCc1ccccc1-c1csc(C(C)Nc2nc(C)nc3cc(OC)c(OC)cc23)c1", "KRAS-mutant PDC multicell tumor spheroid viability", 25.9),
    ("COC(=O)c1ccc2c(C(=Nc3ccc(N(C)C(=O)CN4CCN(C)CC4)cc3)c3ccccc3)c(O)[nH]c2c1 + C=CC(=O)N1CCN(c2nc(OCC3CCCN3C)nc3c2CCN(c2cccc4cccc(C)c24)C3)CC1CC#N", "KRAS-mutant PDC multicell tumor spheroid viability", 2.62),
    ("CC(C)NCC(C(=O)N1CCN(c2ncnc3c2C(C)CC3O)CC1)c1ccc(Cl)cc1 (stereo unspecified) + C=CC(=O)N1CCN(c2nc(OCC3CCCN3C)nc3c2CCN(c2cccc4cccc(C)c24)C3)CC1CC#N", "KRAS-mutant PDC multicell tumor spheroid viability", 75.4),
    ("Cn1nccc1Nc1nccc(-c2cc3c(s2)C(C)(C)N(CCN2CCOCC2)C3=O)n1 + CC1OCC2(CCN(c3cnc(Sc4ccnc(N)c4Cl)c(N)n3)CC2)C1N", "KRAS-mutant PDC multicell tumor spheroid viability", 25.4),
    ("COc1cc2nccc(Oc3ccc(NC(=O)C4(C(=O)Nc5ccc(F)cc5)CC4)cc3)c2cc1OC + COc1cc2nc(C)nc(NC(C)c3cc(N)cc(C(F)(F)F)c3)c2cc1OC1CCOC1", "KRAS-mutant PDC multicell tumor spheroid viability", 83.6),
    ("CC1(C)CCC(CN2CCN(c3ccc(C(=O)NS(=O)(=O)c4ccc(NCC5CCOCC5)c([N+](=O)[O-])c4)c(Oc4cnc5[nH]ccc5c4)c3)CC2)=C(c2ccc(Cl)cc2)C1 + COc1cc2nc(C)nc(NC(C)c3cc(N)cc(C(F)(F)F)c3)c2cc1OC1CCOC1", "KRAS-mutant PDC multicell tumor spheroid viability", 70.9),
    ("CC(C)NCC(C(=O)N1CCN(c2ncnc3c2C(C)CC3O)CC1)c1ccc(Cl)cc1 (stereo unspecified) + CNCc1ccccc1-c1csc(C(C)Nc2nc(C)nc3cc(OC)c(OC)cc23)c1", "KRAS-mutant PDC multicell tumor spheroid viability", 67.5),
    ("CC(=O)OC12COC1CC(O)C1(C)C(=O)C(O)C3=C(C)C(OC(=O)C(O)C(NC(=O)OC(C)(C)C)c4ccccc4)CC(O)(C(OC(=O)c4ccccc4)C21)C3(C)C (stereo unspecified) + CNCc1ccccc1-c1csc(C(C)Nc2nc(C)nc3cc(OC)c(OC)cc23)c1", "KRAS-mutant PDC multicell tumor spheroid viability", 23.6),
    ("CC1(C)CCC(CN2CCN(c3ccc(C(=O)NS(=O)(=O)c4ccc(NCC5CCOCC5)c([N+](=O)[O-])c4)c(Oc4cnc5[nH]ccc5c4)c3)CC2)=C(c2ccc(Cl)cc2)C1 + C=CC(=O)N1CCN(c2nc(=O)n(-c3c(C)ccnc3C(C)C)c3nc(-c4c(O)cccc4F)c(F)cc23)C(C)C1", "KRAS-mutant PDC multicell tumor spheroid viability", 76.1),
    ("CC1OCC2(CCN(c3cnc(Sc4ccnc(N)c4Cl)c(N)n3)CC2)C1N (stereo unspecified) + C=CC(=O)N1CCN(c2nc(=O)n(-c3c(C)ccnc3C(C)C)c3nc(-c4c(O)cccc4F)c(F)cc23)C(C)C1", "KRAS-mutant PDC multicell tumor spheroid viability", 71.6),
    ("CCNC(=O)CC1N=C(c2ccc(Cl)cc2)c2cc(OC)ccc2-n2c(C)nnc21 (stereo unspecified) + CC1OCC2(CCN(c3cnc(Sc4ccnc(N)c4Cl)c(N)n3)CC2)C1N", "KRAS-mutant PDC multicell tumor spheroid viability", 23.6),
]

Source of measurements: PubChem BioAssay AID1963871
